- testedOn: T1, 15-mer peptide LGIWGCSGKLICTTT (SEQ ID NO:1) (HIV, not fully specified; cysteine pairing not given here)
- T1 construct: also called U1731DB060-1; U173DB060-1
- T1 peptide: LGIWGCSGKLICTTT
- assayProcedure: indirect ELISA; 15-mer peptide coated 1 ug/ml in DTT; antibody at 12 ng/ml
No end group written: not given here.
measuredQuantity: ELISA OD (OD)
All answers are understood in OD, so give the number only.

HIV-binding peptide #11Q (antibody, V domains shown, Heavy chain only with variant CH1/CH2 (hinge cysteines replaced by serines)) VH: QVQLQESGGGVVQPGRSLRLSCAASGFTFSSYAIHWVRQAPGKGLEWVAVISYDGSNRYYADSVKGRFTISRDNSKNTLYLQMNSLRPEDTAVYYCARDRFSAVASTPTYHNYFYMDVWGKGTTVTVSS = 0.092
HIV-binding peptide #10Q (antibody, V domains shown, also called antibody#10-5Q; U1205DB020-10) VH: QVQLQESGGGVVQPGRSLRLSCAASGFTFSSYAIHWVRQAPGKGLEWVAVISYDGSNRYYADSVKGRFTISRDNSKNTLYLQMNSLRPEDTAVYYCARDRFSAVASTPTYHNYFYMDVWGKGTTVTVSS = 0.14

Here's the next entry for you.
Qu. Assign ELISA OD to the following record: HIV-binding peptide #6 (antibody, human IgG1, kappa, V domains shown, Recombinant, fully human immunoglobulin; also called U1205DB020-6) VH: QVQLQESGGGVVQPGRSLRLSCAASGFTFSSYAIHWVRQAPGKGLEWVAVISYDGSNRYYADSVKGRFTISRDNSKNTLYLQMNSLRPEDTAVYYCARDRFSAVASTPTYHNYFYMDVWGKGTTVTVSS VL: DIQMTQSPSSLSASVGDRVTITCQASQDISNYLAWYQQKPGQAPRLLIYDASNLETGVPSRFSGSGSGTDFTLTISSLQPEDLATYYCQQYDNTPYTFGQGTKLEIKR
Ans. 0.077
